# Measured target: JAK1 (Homo sapiens)
# Construct: made in house; host or cells: SF9 insect cells (baculovirus)
# Sequence (P23458 852-1154): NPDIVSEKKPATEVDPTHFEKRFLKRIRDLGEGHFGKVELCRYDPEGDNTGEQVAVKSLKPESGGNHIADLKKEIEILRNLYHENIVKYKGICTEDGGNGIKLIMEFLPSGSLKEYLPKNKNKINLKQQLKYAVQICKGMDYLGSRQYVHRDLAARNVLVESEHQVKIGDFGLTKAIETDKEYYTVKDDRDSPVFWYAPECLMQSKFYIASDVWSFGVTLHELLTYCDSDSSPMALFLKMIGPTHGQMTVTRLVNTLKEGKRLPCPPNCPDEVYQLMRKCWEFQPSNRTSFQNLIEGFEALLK
# Assay: JAK1 inhibition (Table 4)
# Assay type: biochemical
# Measurement setup: read-out: JAK1 Ki
pKi: −log10 of the molar value.
Threshold check on pKi: at or above 8 gives MET, strictly below gives NOT MET.

Query: Is pKi at least 8? Consider c1cc2c(ncc3nnn(C4CCNCC4)c32)[nH]1
Response: NOT MET

Query: Would you say CC(=O)N1CCC[C@@H](n2cnc3cnc4[nH]ccc4c32)C1 shows pKi at minimum 8?
Response: NOT MET

Query: Please tell me: is the molecule CN1CCC[C@H]1C(=O)N1CCC(n2nnc3cnc4[nH]ccc4c32)CC1 at or over 8 in terms of pKi?
Response: NOT MET

Query: Please check the record C[C@@H](O)c1nc2cnc3[nH]ccc3c2n1C1CCN(Cc2ccn(C)n2)CC1 and state if its pKi is at or above 8.
Response: NOT MET

Query: # check: pKi of C[C@@H](O)c1nc2cnc3[nH]ccc3c2n1C1CCN(c2cccc(C#N)n2)CC1 is greater than or equal to 8
Response: MET

----------
# Measured target: JAK2 (Homo sapiens)
# Construct: made in house; host or cells: SF9 insect cells (baculovirus)
# Assay: JAK2 inhibition (Table 4)
# Assay type: biochemical
# Measurement setup: read-out: JAK2 Ki
Field: label. Allowed values: 1 (yes) (Ki < 70 nM) or 0 (no) (Ki >= 70 nM).

Query: Hi there! Is Ki for O=C(Cc1nc2cnc3[nH]ccc3c2n1C1CCCOC1)N1CCCC1 (racemic) below 70 nM, do you know?
Response: 0 (no)

Query: Dear colleague, could you confirm whether Ki of O=C(Cc1nc2cnc3[nH]ccc3c2n1C1CCN(Cc2ccccc2)CC1)N1CCCC1 falls below 70 nM? Thanks.
Response: 0 (no)

Query: Problem: For the compound O=C(Cc1ccccc1)N1CC[C@@H](n2cnc3cnc4[nH]ccc4c32)C1 , is Ki under 70 nM?
Response: 0 (no)

Query: Hello, is Ki of the following compound strictly smaller than 70 nM? N#CCCN1CCCCC(n2cnc3cnc4[nH]ccc4c32)C1 (racemic)
Response: 1 (yes)

Query: In plain terms, does Cc1nc2cnc3[nH]ccc3c2n1C1CCN(CC(F)(F)F)CC1 come in under 70 nM for Ki?
Response: 1 (yes)

Query: Please determine if O=S1(=O)CCN(C2CCC(n3cnc4cnc5[nH]ccc5c43)CC2)CC1 (centres unmarked) is below 70 nM in terms of Ki.
Response: 1 (yes)

Query: Take the compound CC(C1CCCO1)n1cnc2cnc3[nH]ccc3c21 (single isomer, unassigned) [Example 417] and say whether its Ki is less than 70 nM.
Response: 0 (no)

Query: Is Ki of CC1CN(S(C)(=O)=O)CCC1n1cnc2cnc3[nH]ccc3c21 (racemic) [Example 344] strictly below 70 nM?
Response: 1 (yes)

----------
# Measured target: JAK3 (Homo sapiens)
# Construct: made in house; host or cells: SF9 insect cells (baculovirus)
# Assay: JAK3 inhibition (Table 4)
# Format: biochemical
# Measurement setup: read-out: JAK3 Ki
pKi: −log10 of the molar value.
Answer -1 if pKi is under 7, and 1 if it is 7 or more.

Query: Threshold query (pKi >= 7) on c1cc2c(ncc3nc(C4CCCN4)n(C4CCCOC4)c32)[nH]1 (single isomer, unassigned) [Example 668]
Response: -1

Query: State whether the measured pKi reaches 7, counting equality as reaching it, for CO[C@H](C)c1nc2cnc3[nH]ccc3c2n1C1CCCCC1
Response: 1

Query: Please tell me: is the compound COCC(=O)NCc1nc2cnc3[nH]ccc3c2n1C1CCN(CCC#N)CC1 at or over 7 in terms of pKi?
Response: 1

Query: Check this compound for pKi at or above 7: C[C@@H](O)c1nc2cnc3[nH]ccc3c2n1C1CCC(CC#N)CC1 (some centres unmarked) [Example 1001]
Response: 1

Query: Could you verify whether the entry CC(C)NC(=O)[C@H]1CC[C@H](n2nnc3cnc4[nH]ccc4c32)CC1 shows pKi of no less than 7?
Response: -1

Query: API: above_or_equal(metric=pKi, cutoff=7) for item N#Cc1cccc(CN2CCC(n3cnc4cnc5[nH]ccc5c43)CC2)n1
Response: 1

Query: Reported pKi at or above 7? N#CCCN1CCC(n2c(CNC(=O)c3cccnc3)nc3cnc4[nH]ccc4c32)CC1
Response: 1

Query: pKi >= 7 for O=C(Cc1nc2cnc3[nH]ccc3c2n1C1CCCOC1)N1CCN(CCO)CC1 (racemic) ?
Response: -1

Query: Hello, I need to know if c1cc2c(ncc3ncn(C4CCC(N5CCOCC5)CC4)c32)[nH]1 (centres unmarked) has measured pKi not below 7. Thanks!
Response: -1

Query: Check if pKi >= 7 (inclusive). Item: c1coc(CN2CCC[C@@H](n3cnc4cnc5[nH]ccc5c43)C2)n1
Response: -1

Query: Exam item: decide whether the reported pKi for Fc1cncc(CN2CCC(n3cnc4cnc5[nH]ccc5c43)CC2)c1 is at least 7.
Response: 1

Query: Item CC(=O)N1CCN(C(=O)Cc2nc3cnc4[nH]ccc4c3n2C2CCCOC2)CC1 (racemic) with pKi of 7 or above?
Response: -1

Query: Kindly determine if pKi recorded for c1cnc(N2CCC(n3cnc4cnc5[nH]ccc5c43)CC2)nc1 is above or exactly 7.
Response: -1

Query: Entry Cc1nn(C)c(C)c1CN1CCC(n2c([C@@H](C)O)nc3cnc4[nH]ccc4c32)CC1 : is its pKi no less than 7?
Response: -1

Query: Identify whether the reported pKi of the following compound is 7 or greater: CC1(O)CCC(n2cnc3cnc4[nH]ccc4c32)CC1 (centres unmarked)
Response: 1

Query: Is pKi at least 7? Consider O=C(Cc1nc2cnc3[nH]ccc3c2n1C1CCN(Cc2ccccc2)CC1)N1CCC(F)(F)CC1
Response: 1

Query: Identify whether the reported pKi of the following compound is 7 or greater: C[C@@H](O)c1nc2cnc3[nH]ccc3c2n1C1CCN(Cc2ccn[nH]2)CC1
Response: 1

----------
# Measured target: JAK2 (Homo sapiens, UniProt O60674)
# Construct: made in house; host or cells: SF9 insect cells (baculovirus)
# Sequence (O60674 812-1132): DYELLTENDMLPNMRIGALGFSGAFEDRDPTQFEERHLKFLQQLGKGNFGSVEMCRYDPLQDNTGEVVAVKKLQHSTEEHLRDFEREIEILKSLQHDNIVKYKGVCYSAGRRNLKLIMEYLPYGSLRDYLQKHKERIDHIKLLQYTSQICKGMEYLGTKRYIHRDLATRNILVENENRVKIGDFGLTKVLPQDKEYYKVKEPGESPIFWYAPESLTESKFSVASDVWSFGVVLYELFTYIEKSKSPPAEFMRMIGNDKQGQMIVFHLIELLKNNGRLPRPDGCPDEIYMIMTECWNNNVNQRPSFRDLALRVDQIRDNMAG
# Assay: JAK2 inhibition (Table 4)
# Type: biochemical
# Measurement setup: read-out: JAK2 Ki
Readout label: Ki (nM)
Unit nM implied. Number only.

Query: Look up and report measured Ki for this entry: CS(=O)(=O)NCc1nc2cnc3[nH]ccc3c2n1C1CCNCC1
Response: 812

Query: Please give measured Ki of the following entry: O=C(Cc1nc2cnc3[nH]ccc3c2n1C1CCCOC1)N1CCN(CCO)CC1 (racemic)
Response: 405

Query: Report measured Ki; entry is CC(CC#N)N1CCC(n2c(CC3CC3)nc3cnc4[nH]ccc4c32)CC1 (racemic)
Response: 22.8

Query: Note down Ki recorded for CN1CCOCC1C(=O)N1CCC(n2cnc3cnc4[nH]ccc4c32)CC1 (single isomer, unassigned) [Example 197]
Response: 202

Query: Return value of Ki for input C[C@@H](O)c1nc2cnc3[nH]ccc3c2n1[C@H]1CC[C@H](CC#N)CC1 , no commentary.
Response: 0.81

Query: Kindly indicate its recorded Ki. Item: CC(C)(C)OC(=O)NC1CCC(n2cnc3cnc4[nH]ccc4c32)C1 (racemic) [Example 138]
Response: 27.7

Query: Please give measured Ki of the following entry: CCN1CCC(n2c(CCNS(C)(=O)=O)nc3cnc4[nH]ccc4c32)C(F)(F)C1 (single isomer, unassigned) [Example 806]
Response: 21.2

Query: Please list Ki recorded for the molecule O=C(NC1CCC(n2cnc3cnc4[nH]ccc4c32)CC1)c1cccnc1 (stereo not drawn)
Response: 6.39

Query: For the molecule CC(=O)N(C)CCc1nc2cnc3[nH]ccc3c2n1C1CCN(C(C)CC#N)CC1 (racemic) , give its measured Ki value.
Response: 47

----------
# Measured target: JAK3 (Homo sapiens, UniProt P52333)
# Construct: made in house; host or cells: SF9 insect cells (baculovirus)
# Sequence (P52333 783-1124): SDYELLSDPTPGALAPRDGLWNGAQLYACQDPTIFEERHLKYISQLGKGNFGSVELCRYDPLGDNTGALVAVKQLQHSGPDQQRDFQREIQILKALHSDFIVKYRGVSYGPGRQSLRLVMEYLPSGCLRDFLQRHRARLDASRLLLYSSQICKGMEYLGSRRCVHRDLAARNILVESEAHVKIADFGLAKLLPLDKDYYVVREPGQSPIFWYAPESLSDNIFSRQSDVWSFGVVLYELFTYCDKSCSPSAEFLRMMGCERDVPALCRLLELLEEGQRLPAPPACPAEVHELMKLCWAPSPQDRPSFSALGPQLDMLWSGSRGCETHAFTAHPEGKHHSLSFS
# Assay: JAK3 inhibition (Table 4)
# Type: biochemical
# Measurement setup: read-out: JAK3 Ki
Readout label: pKi
// scale note: pKi = -log10(conc_M); give the bare number

Query: Report its pKi with JAK3 (Homo sapiens, UniProt P52333) as the test system: c1cc2c(ncc3ncn(C4CCCCNC4)c32)[nH]1 (single isomer, unassigned) [Example 110a]
Response: 6.71

Query: Consider the compound c1cc2c(ncc3ncn(C4CCOCC4)c32)[nH]1 tested on JAK3 (Homo sapiens, UniProt P52333); state its pKi.
Response: 6.83

Query: Quote JAK3 (Homo sapiens, UniProt P52333) pKi for entry N#CCCN1CCC(n2c(C(F)(F)F)nc3cnc4[nH]ccc4c32)CC1 .
Response: 8.00

Query: Provide measured pKi on JAK3 (Homo sapiens, UniProt P52333) for CC(C)(C)OC(=O)N[C@H]1CC[C@H](n2nnc3cnc4[nH]ccc4c32)CC1 please.
Response: 6.42
